# Target Of Assay: hTLR9 (Homo sapiens, UniProt Q9NR96)
# Construct: expressed in transfected cells; host or cells: HEK-Blue-hTLR9 cells (HEK293)
# Sequence (Q9NR96 26-1032): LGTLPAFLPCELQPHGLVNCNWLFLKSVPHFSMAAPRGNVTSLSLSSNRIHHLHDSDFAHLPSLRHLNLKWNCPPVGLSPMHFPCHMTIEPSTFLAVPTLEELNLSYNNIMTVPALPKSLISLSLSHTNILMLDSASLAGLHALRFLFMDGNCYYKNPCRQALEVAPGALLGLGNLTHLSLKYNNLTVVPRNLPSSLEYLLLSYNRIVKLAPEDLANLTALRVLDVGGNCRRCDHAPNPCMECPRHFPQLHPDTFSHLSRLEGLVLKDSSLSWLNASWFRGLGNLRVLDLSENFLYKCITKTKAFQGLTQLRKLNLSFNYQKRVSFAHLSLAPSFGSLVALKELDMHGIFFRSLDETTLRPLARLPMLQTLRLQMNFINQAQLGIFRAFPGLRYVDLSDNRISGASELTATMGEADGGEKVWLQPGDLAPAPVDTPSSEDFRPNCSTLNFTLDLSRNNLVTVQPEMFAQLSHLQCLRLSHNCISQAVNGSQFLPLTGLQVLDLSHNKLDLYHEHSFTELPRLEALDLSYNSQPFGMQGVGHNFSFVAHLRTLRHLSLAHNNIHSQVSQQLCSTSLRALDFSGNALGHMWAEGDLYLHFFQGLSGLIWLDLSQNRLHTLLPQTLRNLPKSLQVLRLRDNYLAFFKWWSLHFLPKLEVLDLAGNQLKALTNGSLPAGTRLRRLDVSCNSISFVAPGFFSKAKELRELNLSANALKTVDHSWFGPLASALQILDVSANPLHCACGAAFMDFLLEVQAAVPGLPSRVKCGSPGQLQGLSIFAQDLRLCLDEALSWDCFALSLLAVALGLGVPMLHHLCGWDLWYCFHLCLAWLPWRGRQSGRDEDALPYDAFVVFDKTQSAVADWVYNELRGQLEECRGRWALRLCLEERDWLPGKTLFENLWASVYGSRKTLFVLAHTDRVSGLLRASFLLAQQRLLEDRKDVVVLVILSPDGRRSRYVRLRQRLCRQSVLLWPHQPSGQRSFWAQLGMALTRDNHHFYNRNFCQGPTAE
# Assay Summary: hTLR9 antagonism (SEAP inhibition assay) in HEK-Blue-hTLR9 (HEK293) cells, ODN-2006 stimulated
# Type: cell-based
# Condition Parameters: HEK-Blue hTLR9, 1 μM; SEAP, HEK-Blue-hTLR9 cells; read-out: hTLR9 inhibitory activity (% at 1 μM)
# Procedure: hTLR9 Antagonism (SEAP Inhibition Assay) in HEK293 Cell Lines The SEAP reporter gene in HEK-Blue™-hTLR9 cells is placed under the control of the IFN-b minimal promoter fused to five NF-kB and AP-1 binding sites. The stimulation with a TLR9 ligand (ODN-2006) activates NF-kB and AP-1 which induces the production of SEAP. Levels of SEAP are determined with QUANTI-Blue™ detection medium that turns purple/blue in the presence of alkaline phosphatase. […]
Measured Endpoint: inhibition at 1 µM (%)

Reference set, count: 3
CN1CCN(c2ccc(-c3nccc4[nH]c(CCCN5CCOCC5)cc34)cc2)CC1 [Example C2]
100
Cc1cc2[nH]c(CN3CCOCC3)cc2c(-c2ccc(C3CCN(C(C)C)CC3)cc2)n1 [Example A51]
100
CC(C)N1CCN(c2ccc(-c3nccc4[nH]c(CCCN5CCOCC5)cc34)cc2)CC1 [Example C1]
99.2

a = FC(F)(F)CN1CCN(c2ccc(-c3nccc4[nH]c(CN5CCOCC5)cc34)cc2)CC1 [Example A75]
b = CC(C)N1CCC(c2ccc(-c3nccc4[nH]c(CN5CCOCC5)cc34)cc2)CC1 [Example A70]
Between the entries labeled a and b , whose measured inhibition at 1 µM is lower? # answer = label of selected item
a
(a: 34.9%, b: 100%)
